Parameter: pIC50. Scope: all listed entries.
# Tested on: cAMP stimulated parietal cells
# Procedure Text: Isolated parietal cell assay, inhibition of 14C-aminopyrine accumulation, dibutyryl cAMP stimulated
# Format: cell-based, rabbit
# Condition: Oryctolagus cuniculus, 20 min, Example 48, 37° C., read-out: IC50 vcAMP (inhibition of 14C-AP accumulation in cAMP stimulated parietal cells)
Scale explanation: pIC50 corresponds to minus log10 of a concentration expressed in moles per litre.

// known answers, use as guide
[
  {
    "Compound": "CCCCN(CCCC)CCCOc1ccc(/C=C/c2nc3cc(Cl)ccc3s2)cc1 [Example 36]",
    "System": "cAMP stimulated parietal cells",
    "Parameter": "pIC50",
    "Reading": 6.30
  },
  {
    "Compound": "C(=C\\c1nc2ccccc2o1)/c1cccc(OCCCn2ccnc2)c1 [Example 4]",
    "System": "cAMP stimulated parietal cells",
    "Parameter": "pIC50",
    "Reading": 6.47
  },
  {
    "Compound": "C(=C\\c1nc2ccccc2s1)/c1ccc(OCCCCn2ccnc2)cc1 [Example 40]",
    "System": "cAMP stimulated parietal cells",
    "Parameter": "pIC50",
    "Reading": 6.59
  },
  {
    "Compound": "C(=C\\c1nc2ccccc2s1)/c1ccc(OCCn2ccnc2)cc1 [Example 39]",
    "System": "cAMP stimulated parietal cells",
    "Parameter": "pIC50",
    "Reading": 6.34
  }
]

Continue with the next compound.
Data request: Provide cAMP stimulated parietal cells pIC50 reading for CCCN(CCC)CCCOc1c(OC)cc(/C=C/c2nc3ccccc3o2)cc1OC [Example 46] .
Data returned: 6.44
